- Tested on: HCC1569
- Assay Procedure: Cell Proliferation Assay (CellTiter-Glo)
- Assay type: cell-based
- Assay Context: Homo sapiens, 168 h, CCNE1-amplified breast cancer cell line HCC1569, incubated for 7 days
Measured Endpoint: pIC50
FYI, pIC50 means -log10 of a concentration in mol per litre.

compound=Cc1nc2c3c(c1C)C=CNC(=O)c3c(N)n2-c1c(Cl)c(F)cc2[nH]ncc12 test_value=6.25

Query :: Which measured pIC50 value corresponds to Cc1cc2c(C(N)=O)c(N)n(-c3c(C)ccc(O)c3C)c2nc1C [Rp6306, reference compound] ?
Result :: 7.74

Query :: Which measured pIC50 value corresponds to Cc1ccc2[nH]ncc2c1-n1c(N)c2c3c(c(C)c(C)nc31)C=CNC2=O ?
Result :: 6.18

* * *

- Subject Of Test: NanoLuc-PKMYT1 fusion construct (Homo sapiens)
- Sequence (Q99640 whole entry, the tested form may be a part): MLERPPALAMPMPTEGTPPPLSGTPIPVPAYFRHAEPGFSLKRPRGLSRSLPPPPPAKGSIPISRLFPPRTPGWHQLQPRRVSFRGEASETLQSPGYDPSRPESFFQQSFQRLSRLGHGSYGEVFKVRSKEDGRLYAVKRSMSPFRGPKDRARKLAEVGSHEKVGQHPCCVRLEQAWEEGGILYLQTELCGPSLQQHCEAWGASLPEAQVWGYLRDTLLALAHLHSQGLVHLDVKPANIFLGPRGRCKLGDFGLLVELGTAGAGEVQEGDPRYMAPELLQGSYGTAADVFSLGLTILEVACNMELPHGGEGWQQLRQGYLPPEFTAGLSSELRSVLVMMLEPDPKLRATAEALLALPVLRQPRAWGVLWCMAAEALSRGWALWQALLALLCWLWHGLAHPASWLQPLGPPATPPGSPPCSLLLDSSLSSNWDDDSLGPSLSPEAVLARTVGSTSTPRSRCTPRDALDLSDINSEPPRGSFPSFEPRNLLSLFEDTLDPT
- Assay Procedure: cell-based
- Assay Context: HEK293 cell lines transiently expressing NanoLuc-PKMYT1; NanoBRET tracer; test compounds for 2 hours
- Description: HEK293 cell lines transiently expressing the NanoLuc-PKMYT1 fusion construct were seeded into wells of a 3 84-well plate. Cells were pretreated with NanoBRET tracer, then treated with test compounds for 2 hours. BRET signals were measured on an Envision multimode plate reader at 450 nm and 610 nm. IC50 values were calculated, and IC50 curves were plotted using GraphPad Prism with a four-parameter nonlinear regression model.
Some compounds, each annotated with its measured pIC50.
FYI, pIC50 means -log10 of a concentration in mol per litre.

Worked examples follow.
substance_smiles=Cc1nc2c3c(c1C)C=CNC(=O)c3c(N)n2-c1c(Cl)cc(F)c2[nH]ncc12 test_value=7.67
substance_smiles=Cc1nc2c3c(c1C)C=CNC(=O)c3c(N)n2-c1c(Cl)c(F)cc2[nH]ncc12 test_value=7.65
substance_smiles=Cc1ccc2[nH]ncc2c1-n1c(N)c2c3c(c(C)c(C)nc31)C=CNC2=O test_value=8.26

Then there is this compound:
Query :: # query: pIC50 | item Cc1nc2c3c(c1C)C=CNC(=O)c3c(N)n2-c1c(C)c(F)cc2[nH]ncc12 | system: NanoLuc-PKMYT1 fusion construct (Homo sapiens)
Result :: 7.70

Measured values drawn from patent EP4711364A1 for this set.
